# Test system: Mus musculus
# EXPERIMENTAL_DETAILS: Cmax in CD1 mouse at 200 mg/kg, po
# Type: ADME, organism-based
# Set-up: dose 200 mg/kg, route oral
# EXPERIMENTAL_SETUP: in vivo
Property: Cmax; scope: individual compounds
METRIC: Cmax (nM)

COMPOUND: O=C(CCc1ccccc1)c1cc(F)ccc1OCC(O)CN1CCN(C(c2ccccc2)c2ccccc2)CC1 (stereo unspecified)
VALUE_UNIT: nM
OBSERVED_MEASUREMENT: 908
//
COMPOUND: O=C(CCc1ccccc1)c1ccccc1OCC(O)CN1CCC(c2ccccc2)CC1 (stereo unspecified)
VALUE_UNIT: nM
OBSERVED_MEASUREMENT: 1620
//
COMPOUND: Cc1ccc(N2CCN(CC(O)COc3ccccc3C(=O)CCc3ccccc3)CC2)cc1 (stereo unspecified)
VALUE_UNIT: nM
OBSERVED_MEASUREMENT: 866
//
COMPOUND: O=C(CCc1ccccc1)c1ccccc1OCC(O)CN1CCN(C(c2ccccc2)c2ccccc2)CC1 (stereo unspecified)
VALUE_UNIT: nM
OBSERVED_MEASUREMENT: 667
//
COMPOUND: O=C(CCc1ccccc1)c1cc(F)ccc1OCC(O)CN1CCC(c2ccccc2)CC1 (stereo unspecified)
VALUE_UNIT: nM
OBSERVED_MEASUREMENT: 481
//
COMPOUND: O=C(CCc1ccc(F)cc1)c1ccccc1OCC(O)CN1CCN(C(c2ccccc2)c2ccccc2)CC1 (stereo unspecified)
VALUE_UNIT: nM
OBSERVED_MEASUREMENT: 1140

###

# System: Mus musculus
# EXPERIMENTAL_DETAILS: AUC (0 to infinity) in CD1 mouse at 20 mg/kg, po
# Assay type: ADME, organism-based, Plasma
# Design: time infinity, dose 20 mg/kg, route oral
# EXPERIMENTAL_SETUP: in vivo
// reported AUC per item
METRIC: AUC

COMPOUND: O=C(CCc1ccccc1)c1ccccc1OCC(O)CN1CCN(C(c2ccccc2)c2ccccc2)CC1 (centres undefined)
OBSERVED_MEASUREMENT: 0.249 µM·h

COMPOUND: O=C(CCc1ccccc1)c1ccccc1OCC(O)CN1CCC(c2ccccc2)CC1 (centres undefined)
OBSERVED_MEASUREMENT: 0.224 µM·h

COMPOUND: O=C(CCc1ccc(F)cc1)c1ccccc1OCC(O)CN1CCN(C(c2ccccc2)c2ccccc2)CC1 (centres undefined)
OBSERVED_MEASUREMENT: 0.298 µM·h

COMPOUND: O=C(CCc1ccccc1)c1cc(F)ccc1OCC(O)CN1CCC(c2ccccc2)CC1 (centres undefined)
OBSERVED_MEASUREMENT: 1.6 µM·h

###

# EXPERIMENTAL_DETAILS: Solubility of the compound in PBS at 10 mM after 18 hrs by UV spectroscopic analysis
# Type: physicochemical
METRIC: solubility at 18 h, 10000 µM (µM)

COMPOUND: O=C(CCc1ccc(F)cc1)c1ccccc1OCC(O)CN1CCN(C(c2ccccc2)c2ccccc2)CC1 (stereo unspecified)
METRIC: solubility at 18 h, 10000 µM
OBSERVED_MEASUREMENT: 0.6

COMPOUND: O=C(CCc1ccccc1)c1ccccc1OCC(O)CN1CCN(C(c2ccccc2)c2ccccc2)CC1 (stereo unspecified)
METRIC: solubility at 18 h, 10000 µM
OBSERVED_MEASUREMENT: 0.1

COMPOUND: O=C(CCc1ccccc1)c1cc(F)ccc1OCC(O)CN1CCC(c2ccccc2)CC1 (stereo unspecified)
METRIC: solubility at 18 h, 10000 µM
OBSERVED_MEASUREMENT: 0.2

COMPOUND: Cc1ccc(N2CCN(CC(O)COc3ccccc3C(=O)CCc3ccccc3)CC2)cc1 (stereo unspecified)
METRIC: solubility at 18 h, 10000 µM
OBSERVED_MEASUREMENT: 2.2

COMPOUND: O=C(CCc1ccccc1)c1ccccc1OCC(O)CN1CCC(c2ccccc2)CC1 (stereo unspecified)
METRIC: solubility at 18 h, 10000 µM
OBSERVED_MEASUREMENT: 7.3

COMPOUND: O=C(CCc1ccccc1)c1cc(F)ccc1OCC(O)CN1CCN(C(c2ccccc2)c2ccccc2)CC1 (stereo unspecified)
METRIC: solubility at 18 h, 10000 µM
OBSERVED_MEASUREMENT: 0.2

###

Quick reference: Tmax of the listed items.
# Test system: Mus musculus
# EXPERIMENTAL_DETAILS: Tmax in CD1 mouse at 200 mg/kg, po
# Type: ADME, organism-based
# Set-up: dose 200 mg/kg, route oral
# EXPERIMENTAL_SETUP: in vivo
METRIC: Tmax (min)

COMPOUND: O=C(CCc1ccccc1)c1ccccc1OCC(O)CN1CCN(C(c2ccccc2)c2ccccc2)CC1 (stereo unspecified)
METRIC: Tmax
OBSERVED_MEASUREMENT: 30

COMPOUND: O=C(CCc1ccccc1)c1cc(F)ccc1OCC(O)CN1CCC(c2ccccc2)CC1 (stereo unspecified)
METRIC: Tmax
OBSERVED_MEASUREMENT: 60

COMPOUND: O=C(CCc1ccc(F)cc1)c1ccccc1OCC(O)CN1CCN(C(c2ccccc2)c2ccccc2)CC1 (stereo unspecified)
METRIC: Tmax
OBSERVED_MEASUREMENT: 60

COMPOUND: Cc1ccc(N2CCN(CC(O)COc3ccccc3C(=O)CCc3ccccc3)CC2)cc1 (stereo unspecified)
METRIC: Tmax
OBSERVED_MEASUREMENT: 30

COMPOUND: O=C(CCc1ccccc1)c1ccccc1OCC(O)CN1CCC(c2ccccc2)CC1 (stereo unspecified)
METRIC: Tmax
OBSERVED_MEASUREMENT: 30

COMPOUND: O=C(CCc1ccccc1)c1cc(F)ccc1OCC(O)CN1CCN(C(c2ccccc2)c2ccccc2)CC1 (stereo unspecified)
METRIC: Tmax
OBSERVED_MEASUREMENT: 60

###

# Tested on: Mus musculus
# EXPERIMENTAL_DETAILS: Tmax in CD1 mouse at 20 mg/kg, po
# Assay type: ADME, organism-based
# Design: dose 20 mg/kg, route oral
# EXPERIMENTAL_SETUP: in vivo

COMPOUND: O=C(CCc1ccccc1)c1cc(F)ccc1OCC(O)CN1CCN(C(c2ccccc2)c2ccccc2)CC1 (stereo unspecified)
Tmax [h]: 1

COMPOUND: Cc1ccc(N2CCN(CC(O)COc3ccccc3C(=O)CCc3ccccc3)CC2)cc1 (stereo unspecified)
Tmax [h]: 8

COMPOUND: O=C(CCc1ccccc1)c1ccccc1OCC(O)CN1CCC(c2ccccc2)CC1 (stereo unspecified)
Tmax [h]: 0.3

COMPOUND: O=C(CCc1ccccc1)c1cc(F)ccc1OCC(O)CN1CCC(c2ccccc2)CC1 (stereo unspecified)
Tmax [h]: 1

COMPOUND: O=C(CCc1ccccc1)c1ccccc1OCC(O)CN1CCN(C(c2ccccc2)c2ccccc2)CC1 (stereo unspecified)
Tmax [h]: 1

COMPOUND: O=C(CCc1ccc(F)cc1)c1ccccc1OCC(O)CN1CCN(C(c2ccccc2)c2ccccc2)CC1 (stereo unspecified)
Tmax [h]: 0.5

###

# System: Mus musculus
# EXPERIMENTAL_DETAILS: Cmax in CD1 mouse at 500 mg/kg, po
# Format: ADME, organism-based
# Design: dose 500 mg/kg, route oral
# EXPERIMENTAL_SETUP: in vivo
METRIC: Cmax (nM)

COMPOUND: O=C(CCc1ccccc1)c1ccccc1OCC(O)CN1CCC(c2ccccc2)CC1 (stereo not drawn)
METRIC: Cmax
OBSERVED_MEASUREMENT: 1750
--
COMPOUND: O=C(CCc1ccc(F)cc1)c1ccccc1OCC(O)CN1CCN(C(c2ccccc2)c2ccccc2)CC1 (stereo not drawn)
METRIC: Cmax
OBSERVED_MEASUREMENT: 861
--
COMPOUND: O=C(CCc1ccccc1)c1ccccc1OCC(O)CN1CCN(C(c2ccccc2)c2ccccc2)CC1 (stereo not drawn)
METRIC: Cmax
OBSERVED_MEASUREMENT: 598

###

# System: hERG
# EXPERIMENTAL_DETAILS: Therapeutic index, ratio of IC50 for human ERG to EC50 for Plasmodium falciparum K1
# EXPERIMENTAL_SETUP: read-out: Ratio IC50/EC50

COMPOUND: O=C(CCc1ccccc1)c1ccccc1OCC(O)CN1CCN(C(c2ccccc2)c2ccccc2)CC1 (stereo unspecified)
STUDY_TARGET: hERG
selectivity ratio: 26

###

# System: Mus musculus
# EXPERIMENTAL_DETAILS: Cmax in CD1 mouse at 20 mg/kg, po
# Assay type: ADME, organism-based
# Parameters: dose 20 mg/kg, route oral
# EXPERIMENTAL_SETUP: in vivo
// reported Cmax per item

MOLECULE: O=C(CCc1ccccc1)c1cc(F)ccc1OCC(O)CN1CCN(C(c2ccccc2)c2ccccc2)CC1 (stereo unspecified)
STUDY_TARGET: Mus musculus
Cmax / nM: 98.7
//
MOLECULE: O=C(CCc1ccccc1)c1cc(F)ccc1OCC(O)CN1CCC(c2ccccc2)CC1 (stereo unspecified)
STUDY_TARGET: Mus musculus
Cmax / nM: 434
//
MOLECULE: Cc1ccc(N2CCN(CC(O)COc3ccccc3C(=O)CCc3ccccc3)CC2)cc1 (stereo unspecified)
STUDY_TARGET: Mus musculus
Cmax / nM: 302
//
MOLECULE: O=C(CCc1ccccc1)c1ccccc1OCC(O)CN1CCN(C(c2ccccc2)c2ccccc2)CC1 (stereo unspecified)
STUDY_TARGET: Mus musculus
Cmax / nM: 73.7
//
MOLECULE: O=C(CCc1ccccc1)c1ccccc1OCC(O)CN1CCC(c2ccccc2)CC1 (stereo unspecified)
STUDY_TARGET: Mus musculus
Cmax / nM: 69.6
//
MOLECULE: O=C(CCc1ccc(F)cc1)c1ccccc1OCC(O)CN1CCN(C(c2ccccc2)c2ccccc2)CC1 (stereo unspecified)
STUDY_TARGET: Mus musculus
Cmax / nM: 92.4
